Test system: ESCHERICHIA COLI DC-2
Run Description: In vitro antibacterial activity (MIC), agar dilution
Format: cell-based
Measurement Parameters: E. coli DC-2; BHI agar, 35-37 °C, 20-24 h
Recorded Endpoint: minimum inhibitory concentration (MIC)

CC[C@H]1OC(=O)[C@H](C)[C@@H](O[C@H]2C[C@@](C)(OC)[C@@H](O)[C@H](C)O2)[C@H](C)[C@@H](O[C@@H]2O[C@H](C)C[C@H](N(C)C)[C@H]2O)[C@](C)(O)C[C@@H](C)C(=O)[C@H](C)[C@@H](O)[C@]1(C)O [Ery A, Erythromycin A, reference compound] = 100
CC[C@H]1OC(=O)[C@H](C)C[C@H](C)[C@@H](O[C@@H]2O[C@H](C)C[C@H](N(C)C)[C@H]2O)[C@](C)(OC)C[C@@H](C)C(=O)[C@H](C)[C@@H](O)[C@]1(C)O = > 100
CC[C@H]1OC(=O)[C@H](C)C[C@H](C)[C@@H](O[C@@H]2O[C@H](C)C[C@H](N(C)C)[C@H]2O)[C@](C)(OC)C[C@@H](C)C(=NO)[C@H](C)[C@@H](O)[C@]1(C)O = > 100

// moving on: another record for minimum inhibitory concentration (MIC)
Input line: Which minimum inhibitory concentration (MIC) is reported for this compound? CC[C@H]1OC(=O)[C@H](C)C[C@H](C)[C@@H](O[C@@H]2O[C@H](C)C[C@H](N(C)C)[C@H]2O)[C@](C)(OC)C[C@@H](C)C(=O)[C@H](C)[C@H]2OC(=O)O[C@@]21C
Output line: > 100

====

Readings of minimum inhibitory concentration (MIC) for the listed compounds
System: STREPTOCOCCUS PYOGENES PIU 2548
Run Description: In vitro antibacterial activity (MIC), agar dilution
Type: cell-based
Measurement Parameters: S. pyogenes PIU 2548; BHI agar, 35-37 °C, 20-24 h
Reply briefly: the number, and no unit.

CC[C@H]1OC(=O)[C@H](C)C[C@H](C)[C@@H](O[C@@H]2O[C@H](C)C[C@H](N(C)C)[C@H]2O)[C@](C)(OC)C[C@@H](C)C(=O)[C@H](C)[C@H]2OC(=O)O[C@@]21C = 0.78
CC[C@H]1OC(=O)[C@H](C)C[C@H](C)[C@@H](O[C@@H]2O[C@H](C)C[C@H](N(C)C)[C@H]2O)[C@](C)(OC)C[C@@H](C)C(=O)[C@H](C)[C@H]2N(CCc3ccc(Oc4ccccc4)cc3)C(=O)O[C@]12C = 3.1

Input line: Please provide the recorded minimum inhibitory concentration (MIC) for CC[C@H]1OC(=O)[C@H](C)C[C@H](C)[C@@H](O[C@@H]2O[C@H](C)C[C@H](N(C)C)[C@H]2O)[C@](C)(OC)C[C@@H](C)C(=NOC)[C@H](C)[C@@H](O)[C@]1(C)O , tested on STREPTOCOCCUS PYOGENES PIU 2548.
Output line: 0.78

====

System: M[…] ATCC 9341
Run Description: In vitro antibacterial activity (MIC), agar dilution
Type: cell-based, Micrococcus luteus
Measurement Parameters: M. luteus ATCC 9341; BHI agar, 35-37 °C, 20-24 h
Recorded Endpoint: minimum inhibitory concentration (MIC)
Reply briefly: the number, and no unit.

CC[C@H]1OC(=O)[C@H](C)C[C@H](C)[C@@H](O[C@@H]2O[C@H](C)C[C@H](N(C)C)[C@H]2O)[C@](C)(OC)C[C@@H](C)C(=NOC)[C@H](C)[C@@H](O)[C@]1(C)O = 0.39
CC[C@H]1OC(=O)[C@H](C)C[C@H](C)[C@@H](O[C@@H]2O[C@H](C)C[C@H](N(C)C)[C@H]2O)[C@](C)(OC)C[C@@H](C)C(=NO)[C@H](C)[C@@H](O)[C@]1(C)O = 1.56
CC[C@H]1OC(=O)[C@H](C)C[C@H](C)[C@@H](O[C@@H]2O[C@H](C)C[C@H](N(C)C)[C@H]2O)[C@](C)(OC)C[C@@H](C)C(=O)[C@H](C)[C@H]2N(CCCCc3ccccc3)C(=O)O[C@]12C = 1.56

Input line: Which minimum inhibitory concentration (MIC) is reported for this compound? CC[C@H]1OC(=O)[C@H](C)C[C@H](C)[C@@H](O[C@@H]2O[C@H](C)C[C@H](N(C)C)[C@H]2O)[C@](C)(OC)C[C@@H](C)C(=NOCOCCOC)[C@H](C)[C@@H](O)[C@]1(C)O
Output line: 0.02
